Literature survey of IC50 (system: PDE1A (Homo sapiens, UniProt P54750)).

Solved cases (7 shown):
CC[C@@]12C=C(c3nc(C)c(C)o3)n3c4c(c5ccc(S(=O)(=O)N(C)C)cc53)CCN(CCC1)[C@H]42 :: 1000 to 20000 nM
O=C(c1ccc2c(c1)OCO2)N1CCCC(c2nc3c(cnn3C3CCCCC3)c(=O)[nH]2)C1 (centres unmarked) :: 101 to 500 nM
Cc1nn(C(C)(C)C)c2nc(C3CN(C(=O)NCc4ccc(F)cc4)C3)[nH]c(=O)c12 :: 1 to 100 nM
CCCc1nn(C)c2c(=O)[nH]c(N(Cc3cccc(-n4cccn4)c3)CC(CC)CC)nc12 :: < 100 nM
Cc1nn(C(C)(C)C)c2nc(C3CN(C(=O)NC4CCCCC4)C3)[nH]c(=O)c12 :: 1 to 100 nM
CCCc1nn(C)c2c(=O)[nH]c(N3CCC(C(F)(F)F)CC3)nc12 :: > 500 nM
CO[C@H]1CC[C@H](Cn2c(C)cn3c(C4CCOCC4)ncc3c2=O)CC1 :: 323 nM

*Q* # query: IC50 of entry `Cc1cn2c(C3CCOCC3)ncc2c(=O)n1Cc1ccccc1F`
*A* 42 nM

====

Literature survey of pIC50 (system: PDE1A (Homo sapiens, UniProt P54750)).
pIC50: −log10 of the molar value.
EXPERIMENTAL_READOUT: pIC50

Solved cases (5 shown):
Cn1c(Cc2ccc(-c3ccccn3)cc2)cc2c(cnn2C2CCOCC2)c1=O :: 6.80
COc1ncccc1-c1nc2c(C)nn(C(C)C)c2cc1C :: 6.54
CCOc1ncccc1-c1cc(NCc2cc(OC)ccn2)c2c(C(C)C)nn(C)c2n1 :: 7.57
CC(C)n1ncc2nc(-c3cccnc3)cc(N[C@@H]3CCOC3)c21 :: 5.67
CCOc1nnccc1-c1cc(NCc2ncn(C)n2)c2c(C(C)C)nn(C)c2n1 :: 7.57

1 = CCOc1ncccc1-c1cc(NCc2cn[nH]c2)c2c(C(C)C)nn(C)c2n1
2 = COc1ccc2c(N[C@@H]3CCO[C@H]3C3CC3)ncnc2c1OC (relative stereo)
3 = COc1ccc(Cn2c(C)cn3c([C@@H](C)c4ccccc4)ncc3c2=O)cc1
4 = Cc1cc2c(cnn2C2CCOCC2)c(=O)n1Cc1cccc(F)c1
5 = CCOc1ncccc1-c1cc(NCc2ccnc(OC)c2)c2c(C(C)C)nc(C)n2n1
*Q* Ordering criterion: pIC50; begin with the maximum. Write the labels, ordered according to the request.
*A* 5, 1, 3, 4, 2
(5: 8.14, 1: 7.07, 3: 6.68, 4: 5.97, 2: 5.62)

====

pIC50: −log10 of the molar value.
Literature survey of pIC50 (system: PDE1A (Homo sapiens)).

Cc1nn(C2CCCCC2)c2nc(C3CN(C(=O)Nc4ccccc4)C3)[nH]c(=O)c12 :: 7.00 to 9.00

*Q* # query: pIC50 of entry Cc1nn(C2CCCCC2)c2nc(C3CCCN(C(=O)c4cccc5c4OC(F)(F)O5)C3)[nH]c(=O)c12 (centres unmarked)
*A* 6.30 to 7.00

*Q* # iterate: `CCCc1nn(C)c2c(=O)[nH]c(N3CCN(C(=O)C(c4ccccc4)c4ccccc4)CC3)nc12`
*A* < 6.30

*Q* # iterate: `CC[C@@]12C=C(c3nc(C)c(C(=O)N(C)C)o3)n3c4c(c5ccccc53)CCN(CCC1)[C@H]42`
*A* ≥ 6.00

*Q* # iterate: `CCOc1ncccc1-c1cc(NCc2cn(C)cn2)c2c(C(C)C)nc(C)n2n1`
*A* 8.62

*Q* # iterate: `CCCOc1nnccc1-c1cc(NCc2ncn(C)n2)c2c(C(C)C)nn(C)c2n1`
*A* 8.11

*Q* # iterate: `Cc1ccc(Cc2nn3c(C4CCOCC4)ncc3c(=O)n2CC2CCC2)cc1`
*A* 6.61

*Q* # iterate: `COc1ccccc1C(=O)N1CC(c2nc3c(c(C)nn3C3CCCCC3)c(=O)[nH]2)C1`
*A* 6.00 to 6.30

====

pIC50: −log10 of the molar value.
Literature survey of pIC50 (system: PDE1A (Homo sapiens, UniProt P54750)).
EXPERIMENTAL_READOUT: pIC50

I = O=c1c2cnc(C3CCOCC3)n2cc(Cc2ccccc2)n1Cc1cccc(F)c1
II = CCOc1ncccc1-c1cc(N2CCCC2)c2c(cnn2C(C)C)n1
III = CCCc1ncc2c(=O)n(C)c(Cc3ccc(-c4cccc(F)n4)cc3)cn12
*Q* # desc sort on pIC50 across 3 compounds Write the labels, ordered according to the request.
*A* I, III, II
(I: 7.29, III: 6.77, II: 6.45)

1 = Cc1ccc(Cn2c(C)nn3c(C4CCOCC4)ncc3c2=O)cc1
2 = CCCOc1ncccc1-c1nc2c(C)nn(C(C)C)c2cc1C
*Q* // returns 1 or 2 , whichever has the lower pIC50 Indicate your choice by writing its label.
*A* 2

A = CCOc1ncccc1-c1cc(NCc2ccnc(OC)c2)c2c(C(C)C)nn(C)c2n1
B = Cn1cnc(-c2ccc(Cc3cn4c(C5CCOCC5)ncc4c(=O)n3C)cc2)c1
*Q* // returns A or B , whichever has the lower pIC50 Indicate your choice by writing its label.
*A* B

====

Literature survey of IC50 (system: PDE1A (Homo sapiens, UniProt P54750)).

Solved cases (2 shown):
CC[C@@]12C=C(c3cccc(C)n3)n3c4c(c5ccccc53)CCN(CCC1)[C@H]42 :: 1 to 20 µM
CC[C@@]12C=C(c3nc(C)no3)n3c4c(c5ccc(S(=O)(=O)NC)cc53)CCN(CCC1)[C@H]42 :: 1 to 20 µM

*Q* # query: IC50 of entry `CC(=O)c1ccc(N2CC(c3nc4c(cnn4C4CCCCC4)c(=O)[nH]3)C2)cc1`
*A* 0.001 to 0.1 µM

*Q* # iterate: `CC[C@@]12C=C(c3nc(C)c(C)o3)n3c4c(c5ccccc53)CCN(CCC1)[C@H]42`
*A* ≤ 1 µM

*Q* # iterate: `CC(C)(C)OC(=O)N1CCC(NC(=O)N2CC(c3nc4c(cnn4C4CCCCC4)c(=O)[nH]3)C2)CC1`
*A* 0.001 to 0.1 µM

*Q* # iterate: `COc1cncc(-c2cc(N[C@@H]3CCOC3)c3c(cnn3C(C)C)n2)c1`
*A* 1.52 µM

*Q* # iterate: `CCOc1ncccc1-c1cc(NCc2noc(C)n2)c2c(C(C)C)nn(C)c2n1`
*A* 0.0089 µM

*Q* # iterate: `O=c1[nH]c(C2CN(c3nc4ccccc4o3)C2)nc2c1cnn2C1CCCCC1`
*A* 0.101 to 0.5 µM

*Q* # iterate: `Cc1cn2c(C3CCOCC3)ncc2c(=O)n1Cc1ccc(C#N)cc1`
*A* 0.809 µM

*Q* # iterate: `CC(=O)Nc1ccc(N2CC(c3nc4c(cnn4C4CCCCC4)c(=O)[nH]3)C2)cc1`
*A* 0.101 to 0.5 µM

====

Literature survey of IC50 (system: PDE1A (Homo sapiens, UniProt P54750)).
EXPERIMENTAL_READOUT: IC50 (nM)

Solved cases (2 shown):
CC(C)n1ncc2nc(Cc3ccc(F)cc3)cc(N[C@@H]3CCOC3)c21 :: 2860
CCCc1ncc2c(=O)n(Cc3cccc(F)c3)ccn12 :: 801

a = Cc1nn(C(C)C)c2c3cc(nc12)-c1cccnc1OCCOCCOc1ncccc1CN3
b = Cc1nn2c(C3CCOCC3)ncc2c(=O)n1Cc1ccccc1
c = COc1ccc(Cn2c(C)cn3c(C(C)c4nc(C)cs4)ncc3c2=O)cc1 (stereo not drawn)
d = CCOc1ncccc1-c1ccn2c(CC(F)(F)F)nc(C)c2n1
*Q* Ordering criterion: IC50; begin with the maximum. Write the labels, ordered according to the request.
*A* d, b, c, a

====

Literature survey of pIC50 (system: PDE1A (Homo sapiens)).
pIC50: −log10 of the molar value.
EXPERIMENTAL_READOUT: pIC50

Solved cases (3 shown):
CCOc1ncccc1-c1ccn2c([C@H](C)CC)nc(C)c2n1 (single isomer, unassigned) :: 7.29
Cc1cn2c(C3CCOCC3)ncc2c(=O)n1Cc1ccccc1 :: 7.07
CCC(Cn1c(=O)c2nnc(C3(C4CC4)CC3)n2c2ncccc21)OC (single isomer, unassigned) :: 7.82

1 = CCOc1cnccc1-c1cc(NCc2cnn(C)c2)c2c(C(C)C)nc(C)n2n1
2 = COc1ccc2c(NC3CCOC3)ncnc2c1OC (racemic)
*Q* Determine, for 1 and 2 , which has the greater value of pIC50. Indicate your choice by writing its label.
*A* 1

====

pIC50: −log10 of the molar value.
Literature survey of pIC50 (system: PDE1A (Homo sapiens)).

Solved cases (3 shown):
CC[C@@]12C=C(c3ncc(C)o3)n3c4c(c5ccccc53)CCN(CCC1)[C@H]42 :: 4.70 to 6.00
COc1cccc(C(=O)N2CCCC(c3nc4c(c(C)nn4C4CCCCC4)c(=O)[nH]3)C2)c1 (centres unmarked) :: 6.30 to 7.00
CCOc1ncccc1-c1cc(NCc2cnc(C)o2)c2c(C(C)C)nc(C)n2n1 :: 7.72

*Q* For PDE1A (Homo sapiens), provide pIC50 of `CCOc1ncccc1-c1cc(NCc2ncc(F)cn2)c2c(C(C)C)nc(C)n2n1` please.
*A* 7.05

*Q* # iterate: `CCCc1nn(C)c2c(=O)[nH]c(N(Cc3cccc(N4CCOCC4)c3)CC(C)C)nc12`
*A* > 7.00

*Q* # iterate: `COc1ccc(N2CC(c3nc4c(cnn4C4CCCCC4)c(=O)[nH]3)C2)cc1`
*A* 6.30 to 7.00

*Q* # iterate: `CCOc1ncccc1-c1cc(NC[C@@H]2CCCO2)c2c(cnn2C(C)C)n1`
*A* 6.19
